Experiment: qHTS Assay for Lipid Storage Modulators (AID 1519)
Settings: Drosophila S3 cells, BODIPY lipid droplet/cell ratio, laser cytometry; measured here: lipid channel max response; cells loaded with oleic acid
Records with an inconclusive call do not appear.
Endpoint label: max response
Note to self: number, then unit, no commentary.

**Query** Indicate its recorded max response; the compound in question is COc1ccc(CN2CCNCC2)c(OC)c1OC
**Result** -8.59%

**Query** Indicate its recorded max response; the compound in question is CN1[C@@H]2CC[C@H]1CC(OC(=O)c1cc(Cl)cc(Cl)c1)C2 (some centres undefined)
**Result** 27.7%

**Query** Indicate its recorded max response; the compound in question is CNC(=O)Oc1ccc2c(c1)[C@]1(C)CCN(C)[C@@H]1N2C
**Result** -15.5%

**Query** Indicate its recorded max response; the compound in question is CCNc1nc(Cl)nc(NCC)n1
**Result** 16.8%

---

Tested on: CP203
Assay: qHTS profiling for inhibitors of Plasmodium falciparum proliferation (AID 504749); further: nearly all actives have a fitted effect of over 60% in size; further: potency means the concentration at half of the fitted maximal effect
Conditions: P. falciparum in erythrocytes, SYBR Green DNA, 72 h; series mostly up to 28.7 µM
Protocol: NIH National Institute of Allergy and Infectious Diseases [NIAID] NIH Chemical Genomics Center [NCGC] […] Because mature erythrocytes lack DNA, only Plasmodium-derived DNA is detected. NCGC Assay Protocol Summary: The SYBR Green viability assay was adapted from a method described previously (Plouffe et al., 2008). […] The following morning, fluorescence intensity at 485(14) nm excitation and 535(25) nm emission wavelengths was measured on an EnVision (Perkin Elmer) plate reader. […]
Inconclusive results are not listed. Active and inactive are the calls of the source. Calls follow the shape of the dose curve; as a rule, active = well fitted inhibition curve with a large enough effect; inconclusive = small, poorly fitted or top-dose-only effect; inactive = flat fitted curve, though single readings scatter.
Endpoint label: Potency

Known Potency results, listed for orientation:
Molecule: C[N+](C)(C)CCOC(=O)C(O)(c1ccccc1)c1ccccc1
Potency: inactive

Molecule: c1cc2c(c(N3CCNCC3)c1)OCCO2
Potency: inactive

Molecule: C[C@]12Cc3nonc3C[C@@H]1CC[C@@H]1[C@@H]2CC[C@@]2(C)[C@H]1CC[C@]2(C)O
Potency: inactive

Molecule: NC(=O)CN1CCCC1=O
Potency: inactive

Molecule: O=C(CCCN1CCC(n2c(=O)[nH]c3ccccc32)CC1)c1ccc(F)cc1
Potency: 4.55 µM (active)

We now examine a further molecule.
**Query** Indicate its recorded Potency; the molecule in question is CC(C)C(Br)C(=O)NC(N)=O (stereo unspecified)
**Result** inactive

---

Test system: HB3
Experiment: qHTS profiling for inhibitors of Plasmodium falciparum proliferation (AID 504749); further: nearly all actives have a fitted effect of over 60% in size
Settings: P. falciparum in erythrocytes, SYBR Green DNA, 72 h; series mostly up to 28.7 µM
Records with an inconclusive call do not appear. The source made the active and inactive calls. Calls follow the shape of the dose curve; as a rule, active = well fitted inhibition curve with a large enough effect; inconclusive = small, poorly fitted or top-dose-only effect; inactive = flat fitted curve, though single readings scatter.
Write down one outcome, taken from Yes for active, No for inactive

Example entries and their recorded answers appear below.
Chemical structure: CCN(CC)CCOC(=O)C(C)(c1ccccc1)c1ccccc1
Category label: No
//
Chemical structure: C[C@]12CC[C@H]3[C@@H](CC=C4C[C@@H](O)CC[C@@]43C)[C@@H]1CC[C@@H]2O
Category label: No
//
Chemical structure: C[C@H]1C(=O)O[C@@H]2CCN3CC=C(COC(=O)[C@](C)(O)[C@]1(C)O)[C@H]23
Category label: No

**Query** Status in this test for Cc1c(Cl)c(=O)oc2cc(OP(=O)(OCCCl)OCCCl)ccc12 ?
**Result** Yes

**Query** Status in this test for COP(=S)(OC)Oc1ccc(Sc2ccc(OP(=S)(OC)OC)cc2)cc1 ?
**Result** No
